Form: system (MAO-A enzyme (Homo sapiens (Human), UniProt P21397)), quantity (pIC50), values below.
pIC50: −log10 of the molar value. Structures can show the parent of a compound that is named as a salt.

| compound | test system | pIC50 |
| --- | --- | --- |
| O=C(Nc1ccc(-c2ncccn2)cc1)c1cccc([C@@H]2C[C@H]2NCC2CC2)c1 (relative stereo) [Example 58, dihydrochloride] | MAO-A enzyme (Homo sapiens (Human), UniProt P21397) | < 5.00 |
| CN1CCC(N[C@@H]2C[C@H]2c2cccc(C(=O)NC3CCCC3)c2)CC1 (relative stereo) [Example 200, dihydrochloride] | MAO-A enzyme (Homo sapiens (Human), UniProt P21397) | < 5.00 |
| O=C(Nc1ccc(Cc2ccccc2)cc1)c1cccc([C@@H]2C[C@H]2NCC2CC2)c1 (relative stereo) [Example 129, trifluoroacetate] | MAO-A enzyme (Homo sapiens (Human), UniProt P21397) | < 5.00 |

----------
pIC50: −log10 of the molar value. Where a name gives a salt, the structure may show the parent alone.
MAO-A enzyme (Homo sapiens (Human), UniProt P21397) pIC50 data
Sequence (P21397 whole entry): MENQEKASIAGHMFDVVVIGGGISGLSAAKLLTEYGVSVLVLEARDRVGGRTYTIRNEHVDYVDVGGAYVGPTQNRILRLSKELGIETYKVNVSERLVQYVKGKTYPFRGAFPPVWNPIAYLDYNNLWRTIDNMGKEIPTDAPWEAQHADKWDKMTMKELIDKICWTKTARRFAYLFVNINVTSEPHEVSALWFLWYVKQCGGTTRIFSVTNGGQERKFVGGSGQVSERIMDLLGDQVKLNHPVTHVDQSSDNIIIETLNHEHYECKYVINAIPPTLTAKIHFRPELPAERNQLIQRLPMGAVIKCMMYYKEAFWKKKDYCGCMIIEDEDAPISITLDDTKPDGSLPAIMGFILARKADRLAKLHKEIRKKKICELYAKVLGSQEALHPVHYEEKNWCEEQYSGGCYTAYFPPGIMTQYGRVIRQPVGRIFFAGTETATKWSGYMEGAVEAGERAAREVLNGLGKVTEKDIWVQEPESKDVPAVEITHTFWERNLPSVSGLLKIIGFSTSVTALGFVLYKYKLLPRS

| compound | test system | pIC50 |
| --- | --- | --- |
| O=C(NCC(c1ccccc1)N1CCOCC1)c1ccc(C2CC2NCC2CC2)cc1 (centres unmarked) [Example 24, bis(trifluoroacetate)] | MAO-A enzyme (Homo sapiens (Human), UniProt P21397) | < 5.00 |
| O=C(Nc1cnn(CC(F)(F)F)c1)c1cccc([C@@H]2C[C@H]2NCC2CC2)c1 (relative stereo) [Example 151, hydrochloride] | MAO-A enzyme (Homo sapiens (Human), UniProt P21397) | < 5.00 |
| O=C(NCc1ccncc1)c1ccc([C@@H]2C[C@H]2NCC2CC2)cc1 (relative stereo) [Example 17, bis(trifluoroacetate)] | MAO-A enzyme (Homo sapiens (Human), UniProt P21397) | < 5.00 |
| O=C(Nc1cnn(Cc2ccc(F)cc2)c1)c1cccc([C@@H]2C[C@H]2NC2CCOCC2)c1 (relative stereo) [Example 217, dihydrochloride] | MAO-A enzyme (Homo sapiens (Human), UniProt P21397) | < 5.00 |
| Cc1cc(C)nc(Sc2cccc(NC(=O)c3cccc([C@@H]4C[C@H]4NCC4CC4)c3)c2)n1 (relative stereo) [Example 132, trifluoroacetate] | MAO-A enzyme (Homo sapiens (Human), UniProt P21397) | < 5.00 |
| Cc1cc(NC(=O)c2cccc([C@@H]3C[C@H]3NCC3CCOCC3)c2)on1 (relative stereo) [Example 92, hydrochloride] | MAO-A enzyme (Homo sapiens (Human), UniProt P21397) | < 5.00 |
| O=C(Nc1ccc2nccnc2c1)c1cccc([C@@H]2C[C@H]2NCC2CC2)c1 (relative stereo) [Example 143, bis(trifluoroacetate)] | MAO-A enzyme (Homo sapiens (Human), UniProt P21397) | 5.68 |
| O=C(NCc1ccccc1)c1cccc([C@@H]2C[C@H]2NCC2CC2)c1 (relative stereo) [Example 14, hydrochloride] | MAO-A enzyme (Homo sapiens (Human), UniProt P21397) | 5.09 |

Where do these numbers come from? They come from patent US9751885B2.
